Values compiled from PubChem BioAssay (Tox21).

# SYSTEM_UNDER_TEST: Luciferin 4-monooxygenase (Photinus pyralis) (UniProt P08659)
# Sequence (P08659 whole entry, looked up): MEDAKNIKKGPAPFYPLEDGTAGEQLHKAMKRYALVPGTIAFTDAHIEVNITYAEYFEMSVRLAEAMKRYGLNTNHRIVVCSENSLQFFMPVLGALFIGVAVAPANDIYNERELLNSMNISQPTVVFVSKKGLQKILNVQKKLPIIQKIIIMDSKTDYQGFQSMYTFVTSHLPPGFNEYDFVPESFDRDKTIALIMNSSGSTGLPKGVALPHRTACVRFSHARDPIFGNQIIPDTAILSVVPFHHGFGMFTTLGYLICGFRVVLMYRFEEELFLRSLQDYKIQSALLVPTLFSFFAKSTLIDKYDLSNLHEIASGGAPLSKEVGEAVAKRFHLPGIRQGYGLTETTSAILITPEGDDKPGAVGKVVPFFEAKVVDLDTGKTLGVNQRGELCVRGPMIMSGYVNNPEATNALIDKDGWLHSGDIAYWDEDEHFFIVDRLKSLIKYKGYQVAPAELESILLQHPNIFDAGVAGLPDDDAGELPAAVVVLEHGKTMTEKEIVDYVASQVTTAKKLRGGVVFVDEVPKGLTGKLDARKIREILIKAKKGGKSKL
# EXPERIMENTAL_PROTOCOL: qHTS assay to identify small molecule inhibitors of firefly luciferase (AID 1224835); further: nearly all actives have a fitted effect of over 25% in size
# MEASUREMENT_PARAMETERS: purified P. pyralis luciferase, luminescence inhibition; series mostly up to 115 µM
Inconclusive results are not listed. The source made the active and inactive calls. The call rests on the fitted dose curve; in most records, active means well fitted inhibition curve with a large enough effect in the repeat runs; inconclusive means weak or mixed curves; inactive means flat fitted curve, though single readings scatter.
Permitted responses: active, inactive

Sample answers from the record:
- COMPOUND: "N#CCCOCCC#N"
  DISCRETE_LABEL: "inactive"
- COMPOUND: "COc1c(Br)cc(Br)c(C)c1Br"
  DISCRETE_LABEL: "inactive"
- COMPOUND: "CSc1ccc(O)cc1C"
  DISCRETE_LABEL: "inactive"
- COMPOUND: "CCOC=C(C(=O)OCC)C(=O)OCC"
  DISCRETE_LABEL: "inactive"
- COMPOUND: "N#Cc1ccc(C/C(=N/NC(=O)Nc2ccc(OC(F)(F)F)cc2)c2cccc(C(F)(F)F)c2)cc1"
  DISCRETE_LABEL: "inactive"
- COMPOUND: "Nc1cc([N+](=O)[O-])cc(Cl)c1O"
  DISCRETE_LABEL: "inactive"

Task: Per the records of this test, what outcome belongs to C/C(=N\[Si](C)(C)C)O[Si](C)(C)C ?
Result: inactive

Task: Please share the test call associated with CC(C)(C)c1cc(CCC(=O)OCCSCCOC(=O)CCc2cc(C(C)(C)C)c(O)c(C(C)(C)C)c2)cc(C(C)(C)C)c1O .
Result: inactive

Task: State the result this test recorded for CCCC(=O)c1cc(O)c(O)cc1O .
Result: active

Task: Kindly provide the recorded test outcome for the following compound: [Cl][Eu]([Cl])[Cl]
Result: active

Task: Check the results log: what was the call for O=C(Nc1ccccc1)c1cc(Cl)ccc1O ?
Result: active

====

# EXPERIMENTAL_PROTOCOL: qHTS assay to identify small molecule agonists of the estrogen related receptor signaling pathway with the pleiotropic PPARgamma coactivator (PGC) (AID 1224823)
# MEASUREMENT_PARAMETERS: ERR/PGC reporter cell line, luciferase agonist mode; series mostly up to 46.1 µM
Inconclusive results are not listed. The source made the active and inactive calls. Calls come from the whole dose curve; as a rule, active = well fitted activation curve with a large enough effect in the repeat runs; inconclusive = weak or mixed curves; inactive = no such curve, though single readings can be large or run the other way.
Respond with a class label; see TRUE (active), FALSE (inactive)

- MOLECULE: "CCCCCCCCCC[Si](C)(C)CCC(=O)NC(Cc1ccc(C)cc1)c1ccccc1 (stereo unspecified)"
  DISCRETE_LABEL: "FALSE"
- MOLECULE: "Nc1ccc(CCNc2ncnc3c2ncn3C2OC(CO)C(O)C2O)cc1 (stereo unspecified)"
  DISCRETE_LABEL: "TRUE"
- MOLECULE: "C[C@H](NC(=O)/C(C#N)=C/c1ccc(O)c(O)c1)c1ccccc1"
  DISCRETE_LABEL: "FALSE"
- MOLECULE: "O=C(O)c1cc([N+](=O)[O-])ccc1NCCCc1ccccc1"
  DISCRETE_LABEL: "FALSE"
- MOLECULE: "Nc1ncnc2n[nH]c(Nc3ccc(F)cc3)c12"
  DISCRETE_LABEL: "TRUE"
- MOLECULE: "O=[N+]([O-])c1ccc(-c2nc(-c3ccc(F)cc3)c(-c3ccncc3)[nH]2)cc1"
  DISCRETE_LABEL: "FALSE"
- MOLECULE: "CC(=O)NNC(=O)N1Cc2ccccc2Oc2ccc(Cl)cc21"
  DISCRETE_LABEL: "FALSE"
- MOLECULE: "OCc1ccc(-c2nn(Cc3ccccc3)c3ccccc23)o1"
  DISCRETE_LABEL: "FALSE"
- MOLECULE: "CC(C)(C)[C@]1(O)CCN2C[C@H]3c4ccccc4CCc4cccc(c43)[C@@H]2C1"
  DISCRETE_LABEL: "FALSE"
- MOLECULE: "O=C(O)C1CN(CCCP(=O)(O)O)CCN1 (stereo unspecified)"
  DISCRETE_LABEL: "FALSE"

# ---- query molecule ----
Task: // outcome(item) with item = CCCCCCC/C=C\CCCCCCCCC(=O)O
Result: FALSE
